STUDY_TARGET: T1, HLA-A*02:01 (human)
T1 construct: captured on streptavidin plates; also called peptide-receptive MHC molecules
ASSAY_INFO: UV peptide exchange ELISA (anti-b2m); yield grade: + >10%, ++ >20%, +++ >50, ++++ >75%
READOUT_KIND: peptide exchange yield

Answered cases to consult:
1. ILPEAQDYFL = > 75%
2. FIDPEQIQV = 50 to 75%
3. KMVGDVTGA = 50 to 75%
4. GIDDLHISL = 50 to 75%
5. SAAEPTPAV = 50 to 75%

So what's the measured peptide exchange yield for this one? "RLMANPEALKI"
50 to 75%

So what's the measured peptide exchange yield for this one? "LIDEAAQML"
50 to 75%

So what's the measured peptide exchange yield for this one? "TLLEGLTEL"
50 to 75%
